These measurements were taken from paper PMC10397247.

experimental-system: T1, 4H249-AA
T1 chain: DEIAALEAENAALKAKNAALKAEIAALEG
assay-name: two-hybrid library CCmax;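 note: natural log of median RNA to DNA barcode read ratio; higher means stronger binding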
assay-conditions: mean of both orientations
reported-property: interaction score

| binder | interaction score |
| --- | --- |
| DENAALEAKIAALKAEIAALKAKNAALKG [4H1360-AA] | -1.76 |
| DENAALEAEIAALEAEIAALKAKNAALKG [4H1040-AA] | -0.999 |
| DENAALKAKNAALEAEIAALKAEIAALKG [4H1930-AA] | -1.82 |
| DENAALKAEIAALKAKIAALEAKNAALEG [4H1639-AA] | -1.52 |
| DENAALKAEIAALEAKNAALKAEIAALEG [4H1593-AA] | -1.77 |

(a) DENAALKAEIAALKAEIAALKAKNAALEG [4H1615-AA]
(b) DENAALKAENAALKAEIAALKAEIAALKG [4H1738-AA]
Query string: For a and b , which recorded interaction score is lower? Could you answer with the label of the item you picked?
Result string: a
